Target: Fur (ferric uptake regulator) (Shewanella piezotolerans WP3) (UniProt B8CQZ2)
Sequence: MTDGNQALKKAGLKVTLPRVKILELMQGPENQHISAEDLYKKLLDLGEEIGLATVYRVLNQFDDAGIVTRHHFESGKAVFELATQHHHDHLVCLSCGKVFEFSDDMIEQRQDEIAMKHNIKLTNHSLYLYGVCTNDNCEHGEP
Experiment: EMSA
Conditions: 40 mM KCl, 12.5 mM Tris pH 7.5, 125 uM MnCl2, 1.25 mM MgCl2, 5% glycerol, 0.5 mM DTT, 0.01% BSA, 50 ug/ml salmon sperm DNA, 20 C, 30 min; ~0.2 pmol probe and …

- macromolecule sequence: "CAGGCTGTAATTGACCTTTTTACACGCAGCAAATAACTGCTTTTTTTGCTGTTCATCAAGTAAAGAGATGAGGGTTCCCGGCACGTTACATTCCTTGGCTTGATAATAATCAAGAGGTGAAGTTTGCTATTCAAGATATAGTGCAAATGATAATCATTATTAATAAAAGTGCAACATATAAAGGGAGCGATTATGGAAGCGATAAGTCCTGCTTTTCGATGGATAAGCGTGATAGCGA (double strand) [Crp-like regulator (swp3806) promoter]"
  binding: "binds"

* * *

Target: Fur (ferric uptake regulator) (Shewanella piezotolerans WP3)
Sequence: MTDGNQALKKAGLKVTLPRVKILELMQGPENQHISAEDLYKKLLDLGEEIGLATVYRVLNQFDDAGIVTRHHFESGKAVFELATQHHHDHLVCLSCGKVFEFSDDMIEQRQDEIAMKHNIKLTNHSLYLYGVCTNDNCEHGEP
Experiment: EMSA
Conditions: 40 mM KCl, 12.5 mM Tris pH 7.5, 125 uM MnCl2, 1.25 mM MgCl2, 5% glycerol, 0.5 mM DTT, 0.01% BSA, 50 ug/ml salmon sperm DNA, 20 C, 30 min; ~0.2 pmol probe and …
assay metric: binding

- macromolecule sequence: "ATAGAGGGGAGCCATAACGGCGAAGGTTACATGGAACTCACCGGCTACTAAGCCGTAACAACCACTCAAACATAAGCTTTATGAAGTATGTAATTGCATTCAAAAAGCAATAGATAAGAATAATTATCATTTACTAAGCTTATGAATATCTTGGATATTTAATGTAGCGCAAGCTAACATTTCGAGTGGACAAAATTCAAACAAGCTTCTAGTCTTTATTGGTAAATTTGAGAACTAGATCACCCCCTAAAAGTTGATCTTGGTCGAT (double strand) [napD (swp4456) promoter]"
  assayed system: "Fur (ferric uptake regulator) (Shewanella piezotolerans WP3)"
  result: "binds"
- macromolecule sequence: "TTATTACGTGCAATAAGAAGCTTTAACTTTGCTGAGATAAACAATGAAAGAGGAGTTTCTATCAAACTTTAAATGAATGATACAGCTTGATTTGTTTGTGATCTTTTTGCTTTTGATGGTTACAGGTTTGTTAGTGTTGTGCGCGAGTTCACATTGACAATGTAAATACACGTAAAGAAGTATGAATAAAAACAATTCTCATTTATATTGCAGCCAATTATTAAATGTAGCTTTCATTTTTGGGGTTGGTTATGTCTTTTCAGGCGTCTT (double strand) [TonB receptor (swp5150) promoter]"
  assayed system: "Fur (ferric uptake regulator) (Shewanella piezotolerans WP3)"
  result: "binds"
- macromolecule sequence: "TGACCTTAATCACATAAAGCATCTAAAACACCTGCTAAAAATTACGCTGTTAGTTAGCCTTAGAGGTGGAAATAAAATTCCACACACTAAATAAGGGTAAATGAGATTTGTTCTCAAACTAATTCCCTTTTTAGTGATGATTAAAAAACTATTGCAGGGACAAAAATGATGAAATTTTTCAACTTAAGCGCGACTTCAAAAGCGCTACTTACGGCAGGGGTGCTTTCGTTAGCAGTTTCTGGCTGTAGTGGC (double strand) [omcA (swp3277) promoter]"
  assayed system: "Fur (ferric uptake regulator) (Shewanella piezotolerans WP3)"
  result: "binds"
